Reference source: patent US20240150325A1

assayed.target: MET (Homo sapiens, UniProt P08581)
Sequence (P08581 25-1390): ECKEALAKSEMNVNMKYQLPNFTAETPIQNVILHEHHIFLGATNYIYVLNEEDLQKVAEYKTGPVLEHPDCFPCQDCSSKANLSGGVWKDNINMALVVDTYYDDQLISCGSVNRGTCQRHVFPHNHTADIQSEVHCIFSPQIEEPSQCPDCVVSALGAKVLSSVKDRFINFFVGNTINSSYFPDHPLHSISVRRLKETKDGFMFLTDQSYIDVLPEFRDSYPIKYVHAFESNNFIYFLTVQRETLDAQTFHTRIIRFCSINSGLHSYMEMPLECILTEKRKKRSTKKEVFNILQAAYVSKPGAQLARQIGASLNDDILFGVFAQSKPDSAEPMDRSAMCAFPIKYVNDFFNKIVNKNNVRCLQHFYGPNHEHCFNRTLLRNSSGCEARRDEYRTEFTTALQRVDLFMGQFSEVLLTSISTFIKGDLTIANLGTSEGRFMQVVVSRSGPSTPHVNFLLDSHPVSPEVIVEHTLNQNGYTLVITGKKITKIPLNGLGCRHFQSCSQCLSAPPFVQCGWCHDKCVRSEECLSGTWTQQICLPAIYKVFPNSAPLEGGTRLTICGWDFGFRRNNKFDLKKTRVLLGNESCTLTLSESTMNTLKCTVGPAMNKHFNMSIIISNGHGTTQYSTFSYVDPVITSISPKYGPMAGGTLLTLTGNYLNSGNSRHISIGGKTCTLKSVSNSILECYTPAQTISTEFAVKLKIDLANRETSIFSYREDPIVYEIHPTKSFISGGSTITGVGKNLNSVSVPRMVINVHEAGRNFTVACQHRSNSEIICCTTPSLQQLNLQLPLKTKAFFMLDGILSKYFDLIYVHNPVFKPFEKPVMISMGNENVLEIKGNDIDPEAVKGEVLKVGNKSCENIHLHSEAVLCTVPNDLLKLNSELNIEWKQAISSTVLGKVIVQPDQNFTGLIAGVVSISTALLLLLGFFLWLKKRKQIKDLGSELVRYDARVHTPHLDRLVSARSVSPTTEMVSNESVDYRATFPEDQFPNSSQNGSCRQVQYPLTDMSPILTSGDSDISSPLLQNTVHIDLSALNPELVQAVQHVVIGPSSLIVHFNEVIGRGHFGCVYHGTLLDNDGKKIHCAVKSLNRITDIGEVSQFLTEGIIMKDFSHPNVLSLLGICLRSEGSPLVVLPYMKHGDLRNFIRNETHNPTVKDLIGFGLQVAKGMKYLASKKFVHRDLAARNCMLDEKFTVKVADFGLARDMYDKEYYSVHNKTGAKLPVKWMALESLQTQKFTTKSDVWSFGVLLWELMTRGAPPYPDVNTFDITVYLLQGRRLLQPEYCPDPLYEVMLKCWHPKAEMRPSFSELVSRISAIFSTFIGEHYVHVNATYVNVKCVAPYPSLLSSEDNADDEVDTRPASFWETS
hey, just use 1 if measured IC50 is less than 0.05 µM, otherwise -1

The examples below pair each entry with its known result.
{"molecule": "CCOc1ccn(-c2ccc(F)cc2)c(=O)c1C(=O)Nc1ccc(Oc2ccc(O)c(-c3ccnc(N)n3)c2)c(F)c1 [Example 39]", "label.value": 1}
{"molecule": "CCOc1ccn(-c2ccc(F)cc2)c(=O)c1C(=O)Nc1ccc(-c2ccc(O)c(-c3ccnc(N)n3)c2)c(C)c1 [Example 13]", "label.value": -1}

Please check: IC50 for COc1ccn(-c2ccc(F)cc2)c(=O)c1C(=O)Nc1ccc(Oc2ccc(O)c(-c3ccnc(N)n3)c2)c(F)c1 [Example 42] , strictly under 0.05 µM or not?
-1

Please check: IC50 for Cc1ccc(C(=O)Nc2ccc(Oc3ccc(O)c(-c4ccnc(N)n4)c3)c(F)c2)c(=O)n1-c1ccc(F)cc1 [Example 40] , strictly under 0.05 µM or not?
1

Please check: IC50 for Cc1c(C(=O)Nc2ccc(Oc3ccc(O)c(-c4ccnc(N)n4)c3)c(F)c2)c(=O)n(-c2ccccc2)n1C [Example 43] , strictly under 0.05 µM or not?
1

###

assayed.target: RON (Homo sapiens, UniProt Q04912)
Sequence (Q04912 25-1400): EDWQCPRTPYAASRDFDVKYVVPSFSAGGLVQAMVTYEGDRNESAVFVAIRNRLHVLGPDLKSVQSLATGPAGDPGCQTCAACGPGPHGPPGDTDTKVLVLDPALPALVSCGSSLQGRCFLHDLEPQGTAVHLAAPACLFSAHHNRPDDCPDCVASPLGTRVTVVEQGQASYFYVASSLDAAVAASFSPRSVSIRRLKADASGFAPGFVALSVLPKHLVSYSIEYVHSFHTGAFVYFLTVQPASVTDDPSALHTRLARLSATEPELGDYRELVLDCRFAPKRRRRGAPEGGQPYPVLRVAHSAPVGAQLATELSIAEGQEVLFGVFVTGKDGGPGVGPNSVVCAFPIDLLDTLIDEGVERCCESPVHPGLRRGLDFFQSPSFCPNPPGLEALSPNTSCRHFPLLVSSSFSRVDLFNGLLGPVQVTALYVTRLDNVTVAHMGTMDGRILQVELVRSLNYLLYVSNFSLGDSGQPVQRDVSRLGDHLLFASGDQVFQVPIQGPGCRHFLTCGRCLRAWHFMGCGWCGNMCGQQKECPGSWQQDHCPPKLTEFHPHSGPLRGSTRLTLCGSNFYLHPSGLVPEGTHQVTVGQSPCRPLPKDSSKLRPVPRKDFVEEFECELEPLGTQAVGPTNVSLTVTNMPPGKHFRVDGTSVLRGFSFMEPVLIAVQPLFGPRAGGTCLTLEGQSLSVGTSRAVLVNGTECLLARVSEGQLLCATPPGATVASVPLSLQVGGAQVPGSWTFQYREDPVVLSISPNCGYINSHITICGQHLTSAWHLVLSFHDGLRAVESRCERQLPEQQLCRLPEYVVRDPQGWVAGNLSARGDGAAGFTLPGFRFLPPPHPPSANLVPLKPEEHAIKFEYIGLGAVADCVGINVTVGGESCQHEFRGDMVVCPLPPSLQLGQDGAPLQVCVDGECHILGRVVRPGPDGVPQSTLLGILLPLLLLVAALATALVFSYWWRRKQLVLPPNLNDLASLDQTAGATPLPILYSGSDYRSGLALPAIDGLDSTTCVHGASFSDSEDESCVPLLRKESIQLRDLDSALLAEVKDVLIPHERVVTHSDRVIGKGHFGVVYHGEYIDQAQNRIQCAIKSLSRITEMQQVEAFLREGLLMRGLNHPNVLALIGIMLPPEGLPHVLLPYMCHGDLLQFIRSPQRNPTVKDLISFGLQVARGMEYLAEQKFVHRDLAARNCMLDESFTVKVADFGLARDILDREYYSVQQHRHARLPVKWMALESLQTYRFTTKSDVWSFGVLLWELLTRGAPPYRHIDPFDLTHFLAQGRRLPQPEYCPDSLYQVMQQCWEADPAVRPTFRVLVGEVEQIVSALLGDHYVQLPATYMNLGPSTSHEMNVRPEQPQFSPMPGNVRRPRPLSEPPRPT
hey, just use 1 if measured IC50 is less than 0.8 µM, otherwise -1

{"compound.structure.string": "CCOc1ccn(-c2ccc(F)cc2)c(=O)c1C(=O)Nc1ccc(Oc2ccc(O)c(-c3cc[nH]n3)c2)c(F)c1", "label.value": -1}
{"compound.structure.string": "Cc1ccc(C(=O)Nc2ccc(Oc3ccc(O)c(-c4cc[nH]n4)c3)c(F)c2)c(=O)n1-c1ccc(F)cc1", "label.value": -1}
{"compound.structure.string": "CCOc1ccn(-c2ccc(F)cc2)c(=O)c1C(=O)Nc1ccc(-c2ccc(O)c(-c3ccnc(N)n3)c2)c(C)c1", "label.value": -1}

Please check: IC50 for CCOc1ccn(-c2ccc(F)cc2)c(=O)c1C(=O)Nc1ccc(-c2ccc(OC)c(-c3cnc(N)nc3)c2)c(F)c1 , strictly under 0.8 µM or not?
-1

Please check: IC50 for Cc1ccc(C(=O)Nc2ccc(Nc3ccc(O)c(-c4ccnc(N)n4)c3)c(F)c2)c(=O)n1-c1ccc(F)cc1 , strictly under 0.8 µM or not?
1

Please check: IC50 for COc1ccn(-c2ccc(F)cc2)c(=O)c1C(=O)Nc1ccc(Oc2ccc(O)c(-c3ccnc(N)n3)c2)c(F)c1 , strictly under 0.8 µM or not?
1

Please check: IC50 for CCOc1ccn(-c2ccc(F)cc2)c(=O)c1C(=O)Nc1ccc(-c2ccc(O)c(-c3ccnc(N)n3)c2)c(F)c1 , strictly under 0.8 µM or not?
1

Please check: IC50 for Nc1nccc(-c2cc(-c3ccc(NC(=O)c4cc(C5CC5)cn(-c5ccc(F)cc5)c4=O)cc3F)ccc2O)n1 , strictly under 0.8 µM or not?
-1

Please check: IC50 for CCOc1ccn(-c2ccc(F)cc2)c(=O)c1C(=O)Nc1ccc(Nc2ccc(O)c(-c3ccnc(N)n3)c2)c(F)c1 , strictly under 0.8 µM or not?
-1

Please check: IC50 for O=C(Nc1ccc(F)cc1)C1(C(=O)Nc2ccc(Oc3ccc(O)c(-c4ccncn4)c3)c(F)c2)CC1 , strictly under 0.8 µM or not?
-1

Please check: IC50 for Cn1cc(-c2cc(C(=O)Nc3ccc(-c4ccc(O)c(-c5ccnc(N)n5)c4)c(F)c3)c(=O)n(-c3ccc(F)cc3)c2)cn1 , strictly under 0.8 µM or not?
-1

Please check: IC50 for Cn1cc(-c2cc(C(=O)Nc3ccc(Oc4ccc(O)c(-c5ccnc(N)n5)c4)c(F)c3)c(=O)n(-c3ccc(F)cc3)c2)cn1 , strictly under 0.8 µM or not?
-1
